melting point for assorted compounds
QUANTITY: melting point

compound=COc1ccc2c(CC(=O)O)c(C(=O)c3ccc(Cl)cc3)[nH]c2c1 value="193 °C"
compound=COC1=Cc2ccccc2Nc2ccccc21 value="124 °C"
compound=O=Cc1ccc(C(=O)Nc2ccc(Cl)cc2)cc1 value="158 °C"
compound="CC1CNC(=Nc2ccccc2N2CCOCC2)N1 (configuration not stated)" value="173 to 174 °C"
compound=CCCC(=O)Nc1ccc(N2CCC(NC[C@H](O)COc3cccc4[nH]c5ccccc5c34)CC2)cc1 value="194 to 199 °C"
compound=O=C(O)c1cnc2c(F)c(F)ccc2c1 value="275 °C"
compound=CC(C)SC1=C(C#N)C(c2ccccc2)(c2ccccc2)C(=O)N1 value="160 °C"
compound=COc1ccc2cc(I)ccc2c1 value="142 to 143 °C"
compound=CC(=O)CSc1nc2ccccc2cc1-c1ccccc1 value="88 to 90 °C"
compound=Cc1[nH]c(=O)[nH]c1C(=O)c1ccco1 value="214 to 216 °C"
compound=CN(C)N1C(=O)C(=Cc2nc(C(C)(C)C)c(O)c(C(C)(C)C)n2)SC1=S value="100 to 105 °C"
compound="OC(C1=NCCN1)(c1ccccc1)c1ccccn1 (configuration not stated)" value="152 to 154 °C"
compound=CC(C)(C)OC(=O)N1CCN(CCOC(N)=O)CC1 value="135 to 136 °C"
compound=Cc1cc(C)n(-c2nc(Nc3ccc(Cl)c(Cl)c3)c3ccccc3n2)n1 value="224 to 226 °C"
compound=CCOC(=O)c1cnc(-c2cc(N)ccc2OCC)[nH]c1=O value="107 to 110 °C"
compound=c1ccc2c(c1)CCn1ccnc1C2=C1CCN(CCn2cccc2)CC1 value="166 °C"
compound=COc1cc(CSc2ccccn2)nc(N)n1 value="115 to 116 °C"
compound=CCOC(=O)C1CCN(Cc2nc(NCc3ccc(OC)c(Cl)c3)c3c4c(oc3n2)CCCC4)CC1 value="152 °C"
compound=COc1ccc(OP(Oc2ccc(OC)cc2C(C)(C)C)Oc2ccc(OC)cc2C(C)(C)C)c(C(C)(C)C)c1 value="82 to 86 °C"
compound=N#Cc1ccc(-c2ncc(Br)cn2)cc1 value="222 °C"
compound=O=C(O)CCC/C=C\C[C@H]1[C@@H]2CC[C@@H](C2)[C@@H]1NC(=O)c1ccc(S(=O)(=O)n2cccc2)s1 value="113 to 114 °C"
compound=O=C(O)c1cn(C2COC2)c2cc(N3CCNCC3)c(F)c(O)c2c1=O value="266 to 273 °C"

---

QUANTITY: melting point

compound=O=C(C(Cl)=Cn1ccnc1)c1ccc(Cl)cc1Cl value="149 to 151 °C"
compound=C[C@@H]1C[C@H](C)CN(C(=O)[C@@H]2Cc3ccccc3N2c2cccnn2)C1 value="159 to 160 °C"
compound="C[C@H]1C(S(=O)(=O)c2ccccc2)C=C(Sc2ccccc2)CC[C@H]1O[Si](C)(C)C (some centres not stated)" value="114 to 116 °C"
compound=N#Cc1c(N2CCN(C(=O)c3ccco3)CC2)c2cc(F)cnc2n(Cc2cccc(F)c2)c1=O value="211 °C"
compound=COc1cc(C(=O)c2ccccc2)cc([N+](=O)[O-])c1OC value="78 to 80 °C"
compound=O=C(CCCCCCCNC(=O)c1cn2c3c(cccc13)CCC2)NO value="174 to 176 °C"
compound=ON=C1CCCCC12OCCO2 value="97 to 98 °C"
compound=Nc1nc2cc3c(cc2[nH]1)OCO3 value="230 to 243 °C"
compound="CCOC(=O)C(CC)Cc1ccc(NC(=O)Cc2ccc(-n3cccc3)cc2)cc1 (configuration not stated)" value="100 to 102 °C"
compound="CNC(=S)C1(c2cccc(C)n2)CCCO1 (configuration not stated)" value="151 °C"
compound=Cc1ccc(C(=O)c2cccc(S)n2)cc1 value="179 to 181 °C"
compound=COc1ccc2c(c1)CCc1cnc(N(C)c3cc(OC)c(OC)c(OC)c3)nc1-2 value="199 to 201 °C"
compound="OC(CNc1ccccc1)c1cc(C(F)(F)F)nc2c(C(F)(F)F)cccc12 (configuration not stated)" value="121 to 122 °C"
compound="COc1cc2c(cc1C(O)c1ccccc1)C=C2C(=O)O (configuration not stated)" value="143 to 146 °C"
compound=CC(C)(C)C(=O)C=C(C(=O)C(C)(C)C)n1cncn1 value="107 to 108 °C"
compound=COc1ccc(-c2cc3ncnc(Nc4ccc5[nH]ccc5c4)c3s2)cc1 value="150 to 180 °C"
compound="CCNCC1(O)CCN(c2cc3c(cc2F)c(=O)c(C(=O)O)cn3C2CC2)C1 (configuration not stated)" value="202 to 207 °C"
compound=Fc1ccc(-c2nc(S)nc(-c3ccccn3)n2)cc1 value="> 270 °C"
compound=COc1ccc(CC[C@H]2CNCCN2)cc1 value="125 to 130 °C"
compound=CC#Cc1ncccc1C(=O)c1ccccc1Cl value="45 to 49 °C"
compound=C[C@H](C(=O)O)n1ncn(-c2ccc(OCC(F)(F)C(F)F)cc2)c1=O value="162 to 165 °C"
compound=NC(=O)c1cn(Cc2ccccc2Cl)nn1 value="155 to 158 °C"
